Target: UniProt:P35372
Assay: cell-based
Conditions: MOR cAMP Agonist Potency ± SEM
# EC50 per record follows
I only need the number, in nM, no unit after it.

Reference set (5 entries):
| compound | system.under.test | experimental.result |
| --- | --- | --- |
| O=C1CCC2C3Cc4ccc(O)c5c4[C@@]2(CCN3CCc2ccc(Cl)cc2)[C@H]1O5 (stereo partly shown) [Compound 2i] | UniProt:P35372 | 0.05 |
| O=C1CCC2C3Cc4ccc(O)c5c4[C@@]2(CCN3CC2Cc3ccccc3C2)[C@H]1O5 (stereo partly shown) [Compound 1d] | UniProt:P35372 | 18.3 |
| O=C1CCC2C3Cc4ccc(O)c5c4[C@@]2(CCN3CCc2ccccc2F)[C@H]1O5 (stereo partly shown) [Compound 2g] | UniProt:P35372 | 0.01 |
| O=C(O)C(=O)O.O=C1CCC2[C@H]3Cc4ccc(O)c5c4[C@@]2(CCN3CCc2ccc(Br)cc2)[C@H]1O5 (stereo partly shown) [Compound 2j] | UniProt:P35372 | 0.15 |
| O=C1CCC2C3Cc4ccc(O)c5c4[C@@]2(CCN3CCc2cccc(F)c2)[C@H]1O5 (stereo partly shown) [Compound 2f] | UniProt:P35372 | 0.06 |

Ask: For the compound COc1ccc(CCN2CC[C@]34c5c6ccc(O)c5O[C@H]3C(=O)CCC4C2C6)cc1 (stereo partly shown) [Compound 2d] , report EC50.
Reply: 0.13

Ask: For the compound O=C1CCC2C3Cc4ccc(O)c5c4[C@@]2(CCN3CCc2ccc(F)cc2)[C@H]1O5 (stereo partly shown) [Compound 2e] , report EC50.
Reply: 0.17

Ask: For the compound O=C1CCC2C3Cc4ccc(O)c5c4[C@@]2(CCN3CC=Cc2ccccc2)[C@H]1O5 (stereo partly shown) [Compound 1c] , report EC50.
Reply: 76.7

Ask: For the compound O=C1CCC2C3Cc4ccc(O)c5c4[C@@]2(CCN3CCc2c(Cl)cccc2Cl)[C@H]1O5 (stereo partly shown) [Compound 2k] , report EC50.
Reply: 0.37

Ask: For the compound Cc1ccc(CCN2CC[C@]34c5c6ccc(O)c5O[C@H]3C(=O)CCC4C2C6)cc1 (stereo partly shown) [Compound 2c] , report EC50.
Reply: 0.08

* * *

Target: human κ-opioid receptor (OPRK1) (Homo sapiens, UniProt P41145)
Construct: host or cells: HitHunter CHO-K1 cells
Sequence (P41145 whole entry): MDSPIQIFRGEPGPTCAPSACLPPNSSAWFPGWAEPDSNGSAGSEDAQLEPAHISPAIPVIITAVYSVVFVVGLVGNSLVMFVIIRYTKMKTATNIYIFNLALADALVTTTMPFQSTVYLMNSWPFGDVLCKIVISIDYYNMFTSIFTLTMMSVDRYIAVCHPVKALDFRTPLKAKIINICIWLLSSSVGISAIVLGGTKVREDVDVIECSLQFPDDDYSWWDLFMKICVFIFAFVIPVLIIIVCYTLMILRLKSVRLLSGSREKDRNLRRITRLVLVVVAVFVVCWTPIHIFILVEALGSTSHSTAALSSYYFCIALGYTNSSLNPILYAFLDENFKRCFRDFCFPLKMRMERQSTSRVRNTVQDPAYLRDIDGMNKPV
Experiment: cell-based
Conditions: CHO-K1, read-out: KOR cAMP % Efficacy
test.readout: Emax (%)
I only need the number, in %, no unit after it.

| compound | Emax [%] |
| --- | --- |
| O=C1CCC2C3Cc4ccc(O)c5c4[C@@]2(CCN3CCc2c(Cl)cccc2Cl)[C@H]1O5 (stereo partly drawn) | 74 |

Ask: For the compound O=C1CCC2C3Cc4ccc(O)c5c4[C@@]2(CCN3CCc2ccc([N+](=O)[O-])cc2)[C@H]1O5 (stereo partly drawn) , report Emax.
Reply: 63

Ask: For the compound COc1ccc(CCN2CC[C@]34c5c6ccc(O)c5O[C@H]3C(=O)CCC4C2C6)cc1 (stereo partly drawn) , report Emax.
Reply: 96.2

Ask: For the compound O=C1CCC2C3Cc4ccc(O)c5c4[C@@]2(CCN3CCc2cccc(F)c2)[C@H]1O5 (stereo partly drawn) , report Emax.
Reply: 58

Ask: For the compound Cc1ccc(CCN2CC[C@]34c5c6ccc(O)c5O[C@H]3C(=O)CCC4C2C6)cc1 (stereo partly drawn) , report Emax.
Reply: 99.4

Ask: For the compound O=C(O)C(=O)O.O=C1CCC2[C@H]3Cc4ccc(O)c5c4[C@@]2(CCN3CCc2ccc(Br)cc2)[C@H]1O5 (stereo partly drawn) , report Emax.
Reply: 99

Ask: For the compound O=C1CCC2C3Cc4ccc(O)c5c4[C@@]2(CCN3CCc2ccc(Cl)cc2)[C@H]1O5 (stereo partly drawn) , report Emax.
Reply: 76.6

Ask: For the compound O=C1CCC2C3Cc4ccc(O)c5c4[C@@]2(CCN3CCc2ccccc2F)[C@H]1O5 (stereo partly drawn) , report Emax.
Reply: 74

Ask: For the compound O=C1CCC2C3Cc4ccc(O)c5c4[C@@]2(CCN3CCc2ccc(F)cc2)[C@H]1O5 (stereo partly drawn) , report Emax.
Reply: 80

Ask: For the compound O=C1CCC2C3Cc4ccc(O)c5c4[C@@]2(CCN3CCc2ccc(C(F)(F)F)cc2)[C@H]1O5 (stereo partly drawn) , report Emax.
Reply: 95.7

Ask: For the compound O=C1CCC2C3Cc4ccc(O)c5c4C2(CCN3CCc2ccccc2)C1O5 (stereo not drawn) [Compound S11, N-Phenethylnorhydromorphone] , report Emax.
Reply: 80.6

Ask: For the compound N#CCN1CC[C@]23c4c5ccc(O)c4O[C@H]2C(=O)CCC3C1C5 (stereo partly drawn) , report Emax.
Reply: 99.3

* * *

Target: rat DOR (Rattus norvegicus, UniProt P33533)
Construct: expressed in transfected cells; host or cells: C6 rat glioma cells, stably transfected; membranes
Sequence (P33533 whole entry): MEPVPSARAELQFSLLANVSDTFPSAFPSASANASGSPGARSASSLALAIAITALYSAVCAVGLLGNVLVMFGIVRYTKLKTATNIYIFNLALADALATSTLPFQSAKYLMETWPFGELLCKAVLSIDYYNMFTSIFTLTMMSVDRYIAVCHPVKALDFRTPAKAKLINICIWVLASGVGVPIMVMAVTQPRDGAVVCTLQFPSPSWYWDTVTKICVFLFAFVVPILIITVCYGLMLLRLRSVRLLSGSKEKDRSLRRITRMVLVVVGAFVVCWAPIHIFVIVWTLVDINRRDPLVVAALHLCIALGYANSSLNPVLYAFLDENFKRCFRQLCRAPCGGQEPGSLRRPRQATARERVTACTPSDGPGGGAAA
Assay: Stimulation of [35S]GTPγS binding, C6 glioma cell membranes expressing DOR
Assay type: biochemical
Details: compared to standard maximal DPDPE
Rule: measured DOR % Stimulation, [35S]GTPγS below 80% gets yes (1); anything equal to or greater than 80% gets no (0).

| compound | label.class |
| --- | --- |
| O=C1CCC2C3Cc4ccc(O)c5c4[C@@]2(CCN3CCc2ccc(Cl)cc2)[C@H]1O5 (some centres unmarked) | no (0) |
| O=C1CCC2C3Cc4ccc(O)c5c4[C@@]2(CCN3CCc2ccc([N+](=O)[O-])cc2)[C@H]1O5 (some centres unmarked) | yes (1) |
| O=C1CCC2C3Cc4ccc(O)c5c4[C@@]2(CCN3CCc2cccc(F)c2)[C@H]1O5 (some centres unmarked) | no (0) |

Please find the next compound below.
Ask: Below 80% on DOR % Stimulation, [35S]GTPγS? Entry O=C1CCC2C3Cc4ccc(O)c5c4[C@@]2(CCN3CCc2ccccc2F)[C@H]1O5 (some centres unmarked)
Reply: no (0)

* * *

Molecular target: human μ-opioid receptor (OPRM1) (Homo sapiens, UniProt P35372)
Construct: host or cells: HitHunter CHO-K1 cells
Sequence (P35372 whole entry): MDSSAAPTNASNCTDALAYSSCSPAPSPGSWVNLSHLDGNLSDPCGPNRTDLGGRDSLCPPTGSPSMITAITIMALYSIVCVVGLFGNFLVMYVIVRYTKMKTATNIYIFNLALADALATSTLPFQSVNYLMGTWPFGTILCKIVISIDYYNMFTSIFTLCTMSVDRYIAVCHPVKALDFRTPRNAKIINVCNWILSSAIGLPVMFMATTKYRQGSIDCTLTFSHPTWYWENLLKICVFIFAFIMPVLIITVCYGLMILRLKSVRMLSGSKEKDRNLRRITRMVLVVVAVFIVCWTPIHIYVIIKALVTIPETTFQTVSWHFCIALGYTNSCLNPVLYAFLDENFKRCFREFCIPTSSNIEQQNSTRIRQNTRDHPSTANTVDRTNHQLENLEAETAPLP
Assay: cell-based
Conditions: OPRM1, read-out: MOR cAMP % Efficacy
test.readout: Emax (%)
I only need the number, in %, no unit after it.

Ask: For the molecule O=C1CCC2C3Cc4ccc(O)c5c4[C@@]2(CCN3CCc2ccc(C(F)(F)F)cc2)[C@H]1O5 (stereo partly shown) , report Emax.
Reply: 102

Ask: For the molecule O=C(O)C(=O)O.O=C1CCC2[C@H]3Cc4ccc(O)c5c4[C@@]2(CCN3CCc2ccc(Br)cc2)[C@H]1O5 (stereo partly shown) , report Emax.
Reply: 103

Ask: For the molecule Cc1ccc(CCN2CC[C@]34c5c6ccc(O)c5O[C@H]3C(=O)CCC4C2C6)cc1 (stereo partly shown) , report Emax.
Reply: 102

Ask: For the molecule O=C1CCC2C3Cc4ccc(O)c5c4[C@@]2(CCN3CC2Cc3ccccc3C2)[C@H]1O5 (stereo partly shown) , report Emax.
Reply: 95.2

Ask: For the molecule O=C1CCC2C3Cc4ccc(O)c5c4[C@@]2(CCN3CCc2ccc(F)cc2)[C@H]1O5 (stereo partly shown) , report Emax.
Reply: 101

Ask: For the molecule O=C1CCC2C3Cc4ccc(O)c5c4C2(CCN3CCc2cccc([N+](=O)[O-])c2)C1O5 (stereo not shown) , report Emax.
Reply: 102

Ask: For the molecule C[C@@H](NC(=O)[C@@H](N)Cc1ccc(O)cc1)C(=O)NCC(=O)N(C)[C@@H](Cc1ccccc1)C(=O)NCCO [DAMGO, [D-Ala^2, N-MePhe^4, Gly-ol]-enkephalin, reference compound] , report Emax.
Reply: 102

Ask: For the molecule O=C1CCC2C3Cc4ccc(O)c5c4C2(CCN3CCc2ccccc2)C1O5 (stereo not shown) [Compound S11, N-Phenethylnorhydromorphone] , report Emax.
Reply: 102

Ask: For the molecule O=C1CCC2C3Cc4ccc(O)c5c4[C@@]2(CCN3CCc2ccccc2F)[C@H]1O5 (stereo partly shown) , report Emax.
Reply: 101

Ask: For the molecule O=C1CCC2C3Cc4ccc(O)c5c4[C@@]2(CCN3CCc2ccc([N+](=O)[O-])cc2)[C@H]1O5 (stereo partly shown) , report Emax.
Reply: 102

Ask: For the molecule O=C1CCC2C3Cc4ccc(O)c5c4[C@@]2(CCN3CCc2ccc(Cl)cc2)[C@H]1O5 (stereo partly shown) , report Emax.
Reply: 98.8

Ask: For the molecule N#CCN1CC[C@]23c4c5ccc(O)c4O[C@H]2C(=O)CCC3C1C5 (stereo partly shown) , report Emax.
Reply: 102

Ask: For the molecule O=C1CCC2C3Cc4ccc(O)c5c4[C@@]2(CCN3CCc2cccc(F)c2)[C@H]1O5 (stereo partly shown) , report Emax.
Reply: 102

Ask: For the molecule O=C1CCC2C3Cc4ccc(O)c5c4[C@@]2(CCN3CC=Cc2ccccc2)[C@H]1O5 (stereo partly shown) , report Emax.
Reply: 103

Ask: For the molecule COc1ccc(CCN2CC[C@]34c5c6ccc(O)c5O[C@H]3C(=O)CCC4C2C6)cc1 (stereo partly shown) , report Emax.
Reply: 103

Ask: For the molecule O=C1CCC2C3Cc4ccc(O)c5c4[C@@]2(CCN3CCc2c(Cl)cccc2Cl)[C@H]1O5 (stereo partly shown) , report Emax.
Reply: 101
